The values you see were collected from PubChem BioAssay AID1419.

Assay: blockers of an Epstein-Barr virus protein-peptide interaction – biochemical, fluorescence polarization, dose response (AID 1419)
Conditions: cell-free protein-peptide binding, 2 h
Calls of active or inactive are those of the source. The rule behind the calls is not given here.
Possible outcomes: active, inactive

>  <Compound>
Cc1ccc(S(=O)(=O)c2c(N)n(Cc3ccco3)c3nc4ccccc4nc23)cc1

>  <Class Assignment>
inactive

$$$$
>  <Compound>
O=C(CSc1ccccn1)Nc1ccc2c(c1)C(=O)c1ccccc1C2=O

>  <Class Assignment>
active

$$$$
>  <Compound>
COc1cccc(Nc2ncccc2C(=O)NCc2ccccc2)c1

>  <Class Assignment>
active

$$$$
>  <Compound>
Cc1c(N2C(=O)c3ccc4c5c(ccc(c35)C2=O)CC4)c(=O)n(-c2ccccc2)n1C

>  <Class Assignment>
inactive

$$$$
>  <Compound>
COc1ccc(-n2c(C)cc(/C=C3\SC(=S)N(Cc4ccco4)C3=O)c2C)cc1

>  <Class Assignment>
active

$$$$
>  <Compound>
O=C(C1=NN(c2ccccc2)C2C(=O)N(c3ccccc3)C(=O)C12)c1ccccc1 (configuration not stated)

>  <Class Assignment>
active

$$$$
>  <Compound>
S=C(Nc1ccc2nc(-c3ccccn3)c(-c3ccccn3)nc2c1)N1CCCCC1

>  <Class Assignment>
inactive

$$$$
>  <Compound>
N#Cc1c2nc3ccccc3nc2n2cc(NC(=O)c3ccc(F)cc3)ccc12

>  <Class Assignment>
active

$$$$
>  <Compound>
O=C(NNC(=O)c1sccc1-n1cccc1)c1cccc(Cl)c1

>  <Class Assignment>
inactive

$$$$
>  <Compound>
Cc1c(C#N)c2ncnc(-c3ccccc3)c2n1-c1ccccc1

>  <Class Assignment>
inactive

$$$$
>  <Compound>
N=C1/C(=C\c2ccc(-c3ccc(C(=O)O)cc3)o2)C(=O)N=C2SC=C(c3ccccc3)N12

>  <Class Assignment>
active

$$$$
>  <Compound>
N#CC(C#N)=Cc1ccc(-c2ccccc2F)o1

>  <Class Assignment>
active

$$$$
>  <Compound>
C=CCOc1cccc(C2C(C(=O)c3ccc(C)o3)=C(O)C(=O)N2c2nccs2)c1 (configuration not stated)

>  <Class Assignment>
active

$$$$
>  <Compound>
CN1/C(=C\C=C\C2=[N+](C)c3ccc4ccccc4c3C2(C)C)C(C)(C)c2ccccc21

>  <Class Assignment>
active

$$$$
>  <Compound>
O=C(CSc1n[nH]c(=O)[nH]c1=O)Nc1ccc2c(c1)C(=O)c1ccccc1C2=O

>  <Class Assignment>
active

$$$$
>  <Compound>
C=CCn1c(C)cc(C(=O)COC(=O)COc2ccccc2C#N)c1C

>  <Class Assignment>
inactive

$$$$
>  <Compound>
CCOC(=O)c1[nH]cnc1N=Nc1c(O)ccc2ccccc12

>  <Class Assignment>
active

$$$$
>  <Compound>
CN1CC=C2C(C#N)=C(N)C(C#N)(C#N)C(c3cccc(Cl)c3Cl)C2C1 (configuration not stated)

>  <Class Assignment>
active

$$$$
>  <Compound>
Cc1ccccc1C(=O)Nc1ccc2c(C#N)c3nc4ccccc4nc3n2c1

>  <Class Assignment>
active

$$$$
>  <Compound>
Cc1nn(C)c(C)c1N1C(=O)c2cccc3c(N)ccc(c23)C1=O

>  <Class Assignment>
active

$$$$
>  <Compound>
COc1ccccc1NC(=O)CC(c1ccc(OC(C)C)cc1)c1ccccc1OC (configuration not stated)

>  <Class Assignment>
inactive

$$$$
>  <Compound>
Cc1cccc2c3nc4ccccc4nc3n(CCCN3C(=O)c4ccccc4C3=O)c12

>  <Class Assignment>
active

$$$$
>  <Compound>
O=C(CSc1nc(-c2ccc(F)cc2)nc2c1Cc1ccccc1O2)Nc1ccc(C(=O)O)cc1

>  <Class Assignment>
active

$$$$
>  <Compound>
CCN(CC)c1ccc(C=C2C(=O)OC(c3ccccc3)OC2=O)cc1 (configuration not stated)

>  <Class Assignment>
active

$$$$
>  <Compound>
Cc1cc(/C=C2\SC(=S)N(Cc3ccco3)C2=O)c(C)n1-c1cccnc1

>  <Class Assignment>
active

$$$$
>  <Compound>
Cc1ccc(S(=O)(=O)Nc2ccc(N3CCN(C)CC3)nc2)cc1

>  <Class Assignment>
active

$$$$
>  <Compound>
Cc1ccc(-c2nc(SCC(=O)Nc3ccccc3OC(F)F)c3c(C)c(C(=O)O)sc3n2)cc1

>  <Class Assignment>
active

$$$$
>  <Compound>
COc1ccc(-n2c(N)c(C#N)c3ccc([N+](=O)[O-])cc3c2=O)cc1

>  <Class Assignment>
inactive

$$$$
>  <Compound>
O=C1CCNc2c(Cl)cc(Cl)cc21

>  <Class Assignment>
active

$$$$
>  <Compound>
Oc1[nH]c2ccccc2c1N=Nc1ccccc1

>  <Class Assignment>
active

$$$$
>  <Compound>
Cc1nn(-c2ccccc2)c2c1C(c1ccc(O)c(O)c1)N1C(=N2)C(Nc2ccccc2)=Nc2ccccc21 (configuration not stated)

>  <Class Assignment>
active

$$$$
>  <Compound>
COc1ccc(C(=O)Nc2cccc(-c3cc4ccccc4oc3=O)c2)cc1[N+](=O)[O-]

>  <Class Assignment>
inactive

$$$$
>  <Compound>
CCN(CC)C(=O)CC(c1cc(OC)c(OC)c(OC)c1)c1c(OC)cc(OC)c2c(-c3ccccc3)cc(=O)oc12 (configuration not stated)

>  <Class Assignment>
inactive

$$$$
>  <Compound>
COc1ccc(OC)c2c1C(=O)c1ccccc1C2=O

>  <Class Assignment>
active

$$$$
>  <Compound>
CC(=O)n1c(C=Nc2ccc(Cl)cc2)c(O)c2ccccc21

>  <Class Assignment>
active

$$$$
>  <Compound>
CC(C)(C)c1cc[n+](-c2[nH]c(=O)sc2/C=N/NC([S-])=Nc2ccccc2)cc1

>  <Class Assignment>
active

$$$$
>  <Compound>
O=c1cc(-c2ccccc2)nc2c(-c3ccccc3)c(C(F)(F)F)[nH]n12

>  <Class Assignment>
inactive

$$$$
>  <Compound>
N#C/C(=C(/O)c1ccc(-c2cccc([N+](=O)[O-])c2)o1)c1nc2ccccc2s1

>  <Class Assignment>
active

$$$$
>  <Compound>
CCc1nn2c(=O)cc(COc3ccc(/C=C4\C(=N)N5N=C(C)SC5=NC4=O)cc3)nc2s1

>  <Class Assignment>
active

$$$$
>  <Compound>
Nc1ccc2c3c(cccc13)C(=O)N(c1ccccc1)C2=O

>  <Class Assignment>
active

$$$$
>  <Compound>
Cc1cc(=O)oc2c(CN3CCC(C)CC3)c(O)c(Cl)cc12

>  <Class Assignment>
active

$$$$
>  <Compound>
CCOc1cc(-c2ccc(N)c(OCC)c2)ccc1N

>  <Class Assignment>
active

$$$$

---

Experiment: blockers of an Epstein-Barr virus protein-peptide interaction – biochemical, fluorescence polarization, dose response (AID 1419)
Settings: cell-free protein-peptide binding, 2 h
Calls of active or inactive are those of the source. The rule behind the calls is not given here.
Possible outcomes: active, inactive

>  <Compound>
COc1ccc(C(=O)NC2(C(F)(F)F)C(=O)N(Cc3ccco3)C3=C2C(=O)CC(C)(C)C3)cc1OC (stereo not given)

>  <Class Assignment>
inactive

$$$$
>  <Compound>
COc1ccccc1N1C(=O)C2C(C(=O)c3ccccc3)=NN(c3ccc(Br)cc3)C2C1=O (stereo not given)

>  <Class Assignment>
inactive

$$$$
>  <Compound>
CCCCNc1ccc2c3c(cccc13)C(=O)N(CCCC)C2=O

>  <Class Assignment>
active

$$$$
>  <Compound>
COc1ccc(NC(=O)C2Cc3ccccc3CN2C(=O)c2ccccc2)cn1 (stereo not given)

>  <Class Assignment>
active

$$$$
>  <Compound>
O=C(CSc1nc(-c2ccc(F)cc2)nc2c1Cc1ccccc1O2)Nc1cccc(C(=O)O)c1

>  <Class Assignment>
active

$$$$
>  <Compound>
CC[C@@H](CO)NC(=O)[C@@H]1C=C2c3cccc4c3c(cn4C)C[C@H]2N(C)C1

>  <Class Assignment>
inactive

$$$$
>  <Compound>
CN(C)c1ccc(/C=C/C(=O)c2cc(Cl)ccc2O)cc1

>  <Class Assignment>
active

$$$$
>  <Compound>
CCCCn1nc(-c2ccccc2)c2nc3ccccc3nc21

>  <Class Assignment>
active

$$$$
>  <Compound>
CCOc1ccc(-c2nn(-c3ccccc3)cc2/C=C2\SC(=S)N(C3CCS(=O)(=O)C3)C2=O)cc1 (stereo not given)

>  <Class Assignment>
active

$$$$
>  <Compound>
CCN1CC=C2C(C1)C(c1ccc(Cl)s1)C(C#N)=C(N)C2(C#N)C#N (stereo not given)

>  <Class Assignment>
active

$$$$

---

Assay: blockers of an Epstein-Barr virus protein-peptide interaction – biochemical, fluorescence polarization, dose response (AID 1419)
Settings: cell-free protein-peptide binding, 2 h
Calls of active or inactive are those of the source. How the calls were made is not given here.
Possible outcomes: True = active, False = inactive

>  <Compound>
CC(=O)N/N=C/c1cc(C(C)C)cc(/C=N/NC(C)=O)c1O

>  <Class Assignment>
True

$$$$
>  <Compound>
CCOc1cc(/C=N/NC(=O)c2ccc(-c3csc(Nc4ccc(C)cc4)n3)cc2)ccc1OCC(=O)O

>  <Class Assignment>
True

$$$$
>  <Compound>
CCCCn1c(N)c(NCCC(C)C)c(=O)[nH]c1=O

>  <Class Assignment>
True

$$$$
>  <Compound>
OCCCc1nc2n(n1)C(c1cccs1)C=C(c1ccc(Br)cc1)N2 (stereo not given)

>  <Class Assignment>
True

$$$$
>  <Compound>
CSC1=NSC2=NC(=O)/C(=C/c3coc4ccc(O)cc4c3=O)C(=N)N12

>  <Class Assignment>
True

$$$$
>  <Compound>
Cc1cccc2cc(/C=C3\N=C(c4ccccc4)OC3=O)c(N3CCOCC3)nc12

>  <Class Assignment>
True

$$$$
>  <Compound>
COc1cccc(C2C3CN(C)CC=C3C(C#N)=C(N)C2(C#N)C#N)c1OC (stereo not given)

>  <Class Assignment>
True

$$$$
>  <Compound>
CCOC(=O)c1c(Nc2ccccc2N)cc(C)nc1C

>  <Class Assignment>
False

$$$$
>  <Compound>
CCN(CC)CCN1C2=C(C(=O)CC(C)(C)C2)C(c2cccc(F)c2)C2=C1CC(C)(C)CC2=O

>  <Class Assignment>
False

$$$$
>  <Compound>
O=C(OCCN1C(=O)c2cccc3c(N4CCOCC4)ccc(c23)C1=O)c1ccc(Cl)cc1

>  <Class Assignment>
True

$$$$
